What Kd was measured for each of the following?
# System name: α-syn aggregate (human, UniProt P37840 1-140)
# Method description: Octet (BLI), α-syn aggregate (Example 2-6)

Which Kd value belongs to DG11 (scFv, V domains shown, Clone from a human scFv phage library; also called ScFV anti α-Syn antibody DG11) VH: EVQLLESGGGLVQPGGSLRLSCAASGFTFSDYAMSWVRQAPGKGLEWVSVISPGSGSKYYADSVKGRFTISRDNSKNTLYLQMNSLRAEDTAVYYCAKVTISCARMRCSYADGMDVWGQGTLVTVSS VL: QSVLTQPPSASGTPGQRVTISCTGSSSNIGSNSVSWYQQLPGTAPKLLIYANSNRPSGVPDRFSGSKSGTSASLAISGLRSEDEADYYCAAWDASLSAYVFGGGTKLTVLG ?
2.66 nM

Would you mind doing AA9 (scFv, V domains shown, Clone from a human scFv phage library; also called ScFV anti α-Syn antibody AA9) VH: EVQLLESGGGLVQPGGSLRLSCAASGFTFSSYSMSWVRQAPGKGLEWVSAIYPGSSNKYYADSVKGRFTISRDNSKNTLYLQMNSLRAEDTAVYYCARHAATFDYWGQGTLVTVSS VL: QSVLTQPPSASGTPGQRVTISCSGSSSNIGSNYVSWYQQLPGTAPKLLIYGDNKRPSGVPDRFSGSKSGTSASLAISGLRSEDEADYYCGAWDDSLSGYVFGGGTKLTVLG as well?
0.88 nM
